These entries and their values trace back to the RNAGym collection of RNA variant scans (doi:10.1021/acssynbio.7b00057).

Quick reference: aptazyme ON/OFF ratio of the listed items.
B1: Pistol ribozyme (parent)
chain: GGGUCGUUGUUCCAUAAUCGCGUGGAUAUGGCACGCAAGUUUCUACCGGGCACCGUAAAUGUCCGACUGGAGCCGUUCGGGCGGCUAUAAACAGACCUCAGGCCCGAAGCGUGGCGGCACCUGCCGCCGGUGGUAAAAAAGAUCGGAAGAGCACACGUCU

# Variants of: B1
# protocol-notes: aptazyme ON/OFF ratio, guanine; higher = stronger switching; co-transcriptional cleavage with and without guanine
quantity-kind: aptazyme ON/OFF ratio

{"columns": ["variant-annotation", "quantity-kind", "numeric-value"],
 "data": [
  ["U7G U8G G9A C12G C13A", "aptazyme ON/OFF ratio", 1.14],
  ["U8C G9C U10A C13U", "aptazyme ON/OFF ratio", 1.07],
  ["G9A U10G U11G C13G", "aptazyme ON/OFF ratio", 1.14],
  ["U8A G9C U11G C13U", "aptazyme ON/OFF ratio", 1.17],
  ["U7C U8G U10C U11C C12G C13G", "aptazyme ON/OFF ratio", 1.13],
  ["U7C U8A G9U U10G U11A C13G", "aptazyme ON/OFF ratio", 1.07],
  ["U7A U8C U10C U11G C12U C13U", "aptazyme ON/OFF ratio", 1.28],
  ["U7C U8A G9C U11C", "aptazyme ON/OFF ratio", 1.04],
  ["U7G U8C G9U U10C U11G C12G C13A", "aptazyme ON/OFF ratio", 1.08],
  ["U8A G9U", "aptazyme ON/OFF ratio", 2.15],
  ["U8A G9U U10G U11C C13U", "aptazyme ON/OFF ratio", 1.02],
  ["U7C U8A U10A C12A C13G", "aptazyme ON/OFF ratio", 1.21],
  ["U8G G9C U10A U11A C12A C13A", "aptazyme ON/OFF ratio", 1.12],
  ["U7C U8A G9A U10G U11A C12A", "aptazyme ON/OFF ratio", 1.15],
  ["U7G U8A U10C U11A C12A", "aptazyme ON/OFF ratio", 1.32],
  ["U7G G9A U10C U11A C12A C13A", "aptazyme ON/OFF ratio", 1.11],
  ["U7A G9U U10C U11C C12G C13G", "aptazyme ON/OFF ratio", 1.04],
  ["U7A U8C G9U U10C U11G C12A C13U", "aptazyme ON/OFF ratio", 1.27],
  ["U7A G9A U10C U11G C12U C13G", "aptazyme ON/OFF ratio", 1.21],
  ["U7C U8G G9A C12A C13U", "aptazyme ON/OFF ratio", 1.29],
  ["U7G U8A G9U U10G U11A C12A C13G", "aptazyme ON/OFF ratio", 1.07],
  ["U8C G9U U10G U11A C12A C13A", "aptazyme ON/OFF ratio", 1.44],
  ["G9A U10A U11G C12A", "aptazyme ON/OFF ratio", 1.02],
  ["G9U C12G C13A", "aptazyme ON/OFF ratio", 1.52],
  ["U7C U8C G9C U10C U11A C12U C13G", "aptazyme ON/OFF ratio", 1.11],
  ["U7C U8G G9U U10C U11A C12A", "aptazyme ON/OFF ratio", 1.43],
  ["U8G U10C C12U C13U", "aptazyme ON/OFF ratio", 1.17],
  ["U7C U8C U10C U11C C12U C13U", "aptazyme ON/OFF ratio", 1.19],
  ["C13U", "aptazyme ON/OFF ratio", 1.38],
  ["U7G G9A U10G U11G C12A C13G", "aptazyme ON/OFF ratio", 1.09],
  ["U8C G9A U10G C13A", "aptazyme ON/OFF ratio", 1.28],
  ["U7C U8C U10A U11C C12G", "aptazyme ON/OFF ratio", 1.26],
  ["U7C U8C G9A U10G U11C C13A", "aptazyme ON/OFF ratio", 1.24],
  ["U7C U8C G9C U10A U11A C13G", "aptazyme ON/OFF ratio", 1.14],
  ["U7A G9U U10G U11C C12G C13U", "aptazyme ON/OFF ratio", 1.31],
  ["U7C U8G G9A U10A U11G C12G", "aptazyme ON/OFF ratio", 1.25],
  ["U8C U10A U11C C12A C13A", "aptazyme ON/OFF ratio", 1.11],
  ["U7A U8A U10C U11C C12A C13A", "aptazyme ON/OFF ratio", 1.06],
  ["U8C G9A U10A U11A C12A C13G", "aptazyme ON/OFF ratio", 1.15],
  ["U8G G9U U10C U11A C13U", "aptazyme ON/OFF ratio", 1.12],
  ["U7A U8A G9U U10G U11C C13A", "aptazyme ON/OFF ratio", 1.06],
  ["U7G U11G C12G", "aptazyme ON/OFF ratio", 1.23],
  ["G9U U10G U11G C12G", "aptazyme ON/OFF ratio", 1.82],
  ["U7A U8C G9C C12G C13G", "aptazyme ON/OFF ratio", 1.09],
  ["U8A G9C U10C U11A C13U", "aptazyme ON/OFF ratio", 1.11],
  ["U7A U8G G9A U10G U11A", "aptazyme ON/OFF ratio", 1.06],
  ["U8C G9A U11C C13A", "aptazyme ON/OFF ratio", 1.06],
  ["U7C G9A U11A", "aptazyme ON/OFF ratio", 1.33],
  ["U8G G9U U10A U11A C12U C13A", "aptazyme ON/OFF ratio", 1.14],
  ["U7C U8A U10C U11A C12G", "aptazyme ON/OFF ratio", 1.2],
  ["U7A G9U U11C C12A C13U", "aptazyme ON/OFF ratio", 1.24],
  ["U7G U8G U11A C12A C13A", "aptazyme ON/OFF ratio", 1.34],
  ["U7C G9U U10A C12G C13A", "aptazyme ON/OFF ratio", 1.24],
  ["U7C G9C C12U C13G", "aptazyme ON/OFF ratio", 1.04],
  ["U7A U8G U10A U11C C13G", "aptazyme ON/OFF ratio", 1.25],
  ["U7G U8C U11A C13A", "aptazyme ON/OFF ratio", 1.14],
  ["U7A U8C U11G C12U", "aptazyme ON/OFF ratio", 1.28],
  ["U8C G9C U11A C12G C13G", "aptazyme ON/OFF ratio", 1.15],
  ["U7G U8G G9A U10C C12U C13G", "aptazyme ON/OFF ratio", 1.18],
  ["U7G U10A U11G C12A C13A", "aptazyme ON/OFF ratio", 1.06],
  ["U7G U8C G9A U10G C12U C13U", "aptazyme ON/OFF ratio", 1.26],
  ["U7C U8C G9A C12U C13A", "aptazyme ON/OFF ratio", 1.27],
  ["U7G U8C G9A U10G U11G C12G", "aptazyme ON/OFF ratio", 1.27],
  ["U7A U11C C13G", "aptazyme ON/OFF ratio", 1.07],
  ["U7C U8G G9C U10G U11C C12U C13U", "aptazyme ON/OFF ratio", 1.21],
  ["U7C G9C U10A C12G C13U", "aptazyme ON/OFF ratio", 1.12],
  ["U7G U10C U11A C12A C13U", "aptazyme ON/OFF ratio", 1.16],
  ["U7C U8G G9C U10C U11G C12U C13A", "aptazyme ON/OFF ratio", 1.07],
  ["U7C G9A U10G U11C C12G", "aptazyme ON/OFF ratio", 1.32],
  ["U7C U8C G9C U10G U11A C13G", "aptazyme ON/OFF ratio", 1.08],
  ["U7A U10C C12U C13U", "aptazyme ON/OFF ratio", 1.33],
  ["U8C G9U U10A C12A", "aptazyme ON/OFF ratio", 1.8],
  ["U8G G9C U10A U11C C12A C13U", "aptazyme ON/OFF ratio", 1.07],
  ["U7G U8G G9U U10A U11C", "aptazyme ON/OFF ratio", 1.09],
  ["U8G U10G C12G C13A", "aptazyme ON/OFF ratio", 1.31],
  ["U7A U8G G9U U10C U11G C12U", "aptazyme ON/OFF ratio", 1.21],
  ["U7G G9U U10C U11A C12A C13U", "aptazyme ON/OFF ratio", 1.36],
  ["U7A U8A G9U U10A C12U C13G", "aptazyme ON/OFF ratio", 1.23],
  ["U8G U10G U11C C13A", "aptazyme ON/OFF ratio", 1.04],
  ["U7A U8G G9A C12A C13G", "aptazyme ON/OFF ratio", 1.19],
  ["U7C G9U U10A U11C C13U", "aptazyme ON/OFF ratio", 1.07],
  ["U7C U8A U10A U11C C13A", "aptazyme ON/OFF ratio", 1.03],
  ["U7C U8G G9U U10G U11G C12U", "aptazyme ON/OFF ratio", 1.28],
  ["U7G U8C G9C U10A C12A", "aptazyme ON/OFF ratio", 1.09],
  ["U8C G9U U10C U11A C13U", "aptazyme ON/OFF ratio", 1.16],
  ["U7C U8A U10A U11A C12U C13U", "aptazyme ON/OFF ratio", 1.13],
  ["U7C G9A U10A C13U", "aptazyme ON/OFF ratio", 1.34],
  ["G9A U10A C12A", "aptazyme ON/OFF ratio", 1.74],
  ["U7G U8A U11G C12A C13A", "aptazyme ON/OFF ratio", 1.24],
  ["U8A U10G U11C C12A C13A", "aptazyme ON/OFF ratio", 1.26],
  ["U7A U8C U10G U11G C12U C13G", "aptazyme ON/OFF ratio", 1.23]
]}
